assayProcedure: acute toxicity, oral administration in sesame oil, death rates for 2 weeks
assaySetup: mouse, in vivo, female ICR mice, sesame oil containing 0.5 % ethanol, read-out: LD₅₀ (lethal dose, 50% mortality)
measuredParameter: LD50 at 336 h (mg/kg)
One number for each entry, in mg/kg.

Sample C=C1CC[C@H](O)C/C1=C/C=C1\CCC[C@]2(C)[C@@H]([C@H](C)CC[C@@H](O)C(C)(C)O)CC[C@@H]12 [24R, 25-(OH)₂-D₃, 24R, 25-dihydroxycholecalciferol] ; LD50 at 336 h observed: 253

====

assayProcedure: acute toxicity, oral administration in sesame oil, death rates for 2 weeks
assaySetup: mouse, in vivo, male ICR mice, sesame oil containing 0.5 % ethanol, read-out: LD₅₀ (lethal dose, 50% mortality)
measuredParameter: LD50 at 336 h (mg/kg)
One number for each entry, in mg/kg.

Sample C=C1CC[C@H](O)C/C1=C/C=C1\CCC[C@]2(C)[C@@H]([C@H](C)CC[C@@H](O)C(C)(C)O)CC[C@@H]12 [24R, 25-(OH)₂-D₃, 24R, 25-dihydroxycholecalciferol] ; LD50 at 336 h observed: 215
